target: MAST2, Q6P0Q8; assay: holdup assay; design: key: below the threshold = too weak to quantify, mostly under pKd 3.1 to 4; conditions: plain residues with an end cap or a label only (N-terminal biotin on a linker: ado-ado)
Sequence (Q6P0Q8 1099-1202): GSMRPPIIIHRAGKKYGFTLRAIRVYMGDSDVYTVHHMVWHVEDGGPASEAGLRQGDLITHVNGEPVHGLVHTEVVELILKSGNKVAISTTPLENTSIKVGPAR
Consider the following binders; for each one, report its pKd.
# output: bare number, no unit

Exam item: Query pKd for QKNKDKEYYV [NRXN3_rs746444206, Q9Y4C0]
Marked response: 3.97

Exam item: For the binder TETASVCTKV [SLC23A1, Q9UHI7] , give its measured pKd value.
Marked response: 5.47

Exam item: Please give the documented pKd of FVHPILQSAV [PRKCA, P17252]
Marked response: 5.35

Exam item: Please list pKd recorded for the binder GFGEERESIL [KIDINS220, Q9ULH0]
Marked response: 5.32

Where do these numbers come from? They come from paper PMC9482650.
